pKi: −log10 of the molar value.
Multi-source literature compilation: pKi on Apoptosis regulator Bcl-2 (Homo sapiens, UniProt P10415).
Sequence (P10415 whole entry): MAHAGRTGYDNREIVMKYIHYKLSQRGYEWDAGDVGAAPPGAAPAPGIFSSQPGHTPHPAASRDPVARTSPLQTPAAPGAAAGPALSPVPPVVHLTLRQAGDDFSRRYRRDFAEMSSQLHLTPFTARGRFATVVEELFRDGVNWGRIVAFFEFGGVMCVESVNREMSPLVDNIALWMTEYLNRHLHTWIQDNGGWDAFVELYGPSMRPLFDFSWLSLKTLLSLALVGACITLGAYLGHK
measure name: pKi

{"smiles str": "COc1ccc2c(c1)c(CC(=O)NS(=O)(=O)c1ccc(N3CCN(C)CC3)c([N+](=O)[O-])c1)c(C)n2-c1ccc(C)cc1", "target under test": "Apoptosis regulator Bcl-2 (Homo sapiens, UniProt P10415)", "measure name": "pKi", "censoring operator": "<", "reported measurement": 5.00}
{"smiles str": "O=C(CCc1ccccc1)Nc1ccc(C(=O)NS(=O)(=O)c2ccc(NCCSc3ccccc3)c([N+](=O)[O-])c2)cc1", "target under test": "Apoptosis regulator Bcl-2 (Homo sapiens, UniProt P10415)", "measure name": "pKi", "censoring operator": "=", "reported measurement": 5.36}
{"smiles str": "CCCOc1ccc(C[C@H](NC(=O)c2cn(Cc3ccc(-c4ccc(Cl)cc4)cc3)c3ccccc23)C(=O)NS(=O)(=O)c2ccc(Cl)c([N+](=O)[O-])c2)cc1", "target under test": "Apoptosis regulator Bcl-2 (Homo sapiens, UniProt P10415)", "measure name": "pKi", "censoring operator": "<", "reported measurement": 5.00}
{"smiles str": "O=C(O)[C@@H](Cc1ccccc1)Nc1ncnc2sc(-c3ccccc3)c(-c3cccc(O)c3)c12", "target under test": "Apoptosis regulator Bcl-2 (Homo sapiens, UniProt P10415)", "measure name": "pKi", "censoring operator": "=", "reported measurement": 4.68}
{"smiles str": "CCOc1ccc(-c2c(NC(=O)c3ccccc3)c(C(=O)O)nn2-c2ccc(Oc3ccccc3)cc2)cc1", "target under test": "Apoptosis regulator Bcl-2 (Homo sapiens, UniProt P10415)", "measure name": "pKi", "censoring operator": "=", "reported measurement": 6.07}
{"smiles str": "COc1cc(CN(C)C)ccc1-c1ccc(C(=O)NS(=O)(=O)c2ccc(NCCSc3ccccc3)c([N+](=O)[O-])c2)cc1", "target under test": "Apoptosis regulator Bcl-2 (Homo sapiens, UniProt P10415)", "measure name": "pKi", "censoring operator": "=", "reported measurement": 5.34}
{"smiles str": "COc1ccccc1N1C(=O)/C(=C/c2cccc(OCc3ccc(C(=O)O)cc3)c2)SC1=S", "target under test": "Apoptosis regulator Bcl-2 (Homo sapiens, UniProt P10415)", "measure name": "pKi", "censoring operator": "=", "reported measurement": 5.80}
